Read-out: Alpha-fetoprotein (AFP) gene, AFP (gene 174)
Test: LTEA_HepaRG_AFP: Life Technologies and Expression Analysis (LTEA) Assay for Alpha-fetoprotein (AFP) gene using HepaRG (AID 2283472)
Conditions: mRNA level, 48 h; actives raise or lower the signal
The source made the active and inactive calls. Rule for the calls: active = hit-call score of the fitted dose curve at least 0.9, where 1 is the maximum; inactive = score below 0.9.
The categories you may choose from are active, inactive

Hi, sorry to bother you, what did the test record for CCCCOC(=O)c1ccccc1C(=O)OCc1ccccc1 ? inactive

Hi, sorry to bother you, what did the test record for COC(=O)c1ccccc1N ? inactive

Hi, sorry to bother you, what did the test record for CCC(C)c1ccc(O)cc1 (stereo not given) ? inactive

Hi, sorry to bother you, what did the test record for O=P(OCCCl)(OCCCl)OCCCl ? inactive

Hi, sorry to bother you, what did the test record for Clc1ccc(Cl)c(Cl)c1 ? active

Hi, sorry to bother you, what did the test record for CC(O)CCO (stereo not given) ? inactive

Hi, sorry to bother you, what did the test record for CCOc1cccc(C2(N3CCN(c4ccccc4)CC3)CCC(C)CC2)c1 (stereo not given) ? inactive

Hi, sorry to bother you, what did the test record for Nc1ccc(Cc2ccc(N)cc2)cc1 ? inactive

Hi, sorry to bother you, what did the test record for O=C(N[C@H](c1ccccc1)[C@@H]1CN2CCC1CC2)c1c(Cl)ccc(C(F)(F)F)c1Cl ? active

Hi, sorry to bother you, what did the test record for N#CC(Br)Br ? inactive

Hi, sorry to bother you, what did the test record for CCN(CC)CCO ? inactive

Hi, sorry to bother you, what did the test record for CCOC(=O)[C@]1(c2ccccc2)Oc2ccccc2[C@@H]1N ? inactive

Hi, sorry to bother you, what did the test record for Cc1ccc([N+](=O)[O-])cc1 ? inactive

Hi, sorry to bother you, what did the test record for c1ccc2c(c1)oc1ccccc12 ? inactive

Hi, sorry to bother you, what did the test record for Cc1ccc(N)c(N)c1 ? inactive

Hi, sorry to bother you, what did the test record for Oc1ccc2ccc3cccc4ccc1c2c34 ? inactive

Hi, sorry to bother you, what did the test record for CCCCC(CC)COC(=O)c1ccc(C(=O)OCC(CC)CCCC)c(C(=O)OCC(CC)CCCC)c1 (stereo not given) ? inactive

Hi, sorry to bother you, what did the test record for ClC1=C(Cl)C2(Cl)C3C(Cl)C=CC3C1(Cl)C2(Cl)Cl (stereo not given) ? active

Hi, sorry to bother you, what did the test record for CCCCCOC(=O)c1ccccc1C(=O)OCCCCC ? inactive

Hi, sorry to bother you, what did the test record for CS(=O)(=O)NC(=O)c1cc(Oc2ccc(C(F)(F)F)cc2Cl)ccc1[N+](=O)[O-] ? inactive

Hi, sorry to bother you, what did the test record for COc1cc(C=O)cc2c1[C@H](COC(N)=O)[C@]1(OC(C)=O)ON2C[C@H]2[C@@H]1N2C(C)=O ? active

Hi, sorry to bother you, what did the test record for Nc1ccc(Oc2ccc(N)cc2)cc1 ? inactive

Hi, sorry to bother you, what did the test record for CN(C)[C@@H]1C(=O)C(C(N)=O)=C(O)[C@@]2(O)C(=O)C3=C(O)c4c(O)cccc4[C@@](C)(O)[C@H]3C[C@@H]12 ? inactive

Hi, sorry to bother you, what did the test record for CC(C)(OOC(C)(C)c1ccccc1)c1ccccc1 ? inactive

Hi, sorry to bother you, what did the test record for [O-][Cl+]O ? inactive

====

Read-out: Thyroid Hormone Responsive (THRSP), THRSP (gene 7069)
Experiment: LTEA_HepaRG_THRSP: Life Technologies and Expression Analysis (LTEA) Assay for Thyroid Hormone Responsive (THRSP) using HepaRG (AID 2283536)
Settings: mRNA level, 48 h; actives raise or lower the signal
Calls of active or inactive are those of the source. How the source made its calls: active means hit-call score of the fitted dose curve at least 0.9, where 1 is the maximum; inactive means score below 0.9.
The categories you may choose from are active, inactive

Hi, sorry to bother you, what did the test record for [As]#[In] ? inactive

Hi, sorry to bother you, what did the test record for Cc1ccc([N+](=O)[O-])cc1 ? inactive

Hi, sorry to bother you, what did the test record for c1ccc2c(c1)-c1cccc3cccc-2c13 ? inactive

Hi, sorry to bother you, what did the test record for CN(C)[C@@H]1C(=O)C(C(N)=O)=C(O)[C@@]2(O)C(=O)C3=C(O)c4c(O)cccc4[C@@](C)(O)[C@H]3C[C@@H]12 ? inactive

Hi, sorry to bother you, what did the test record for Cc1cc(N=Nc2ccccc2C)ccc1N ? active

Hi, sorry to bother you, what did the test record for Clc1ccc(C(c2ccc(Cl)cc2)C(Cl)Cl)cc1 ? active

Hi, sorry to bother you, what did the test record for C[C@]12C=CC3=C4CCC(=O)C=C4CC[C@H]3[C@@H]1CC[C@@H]2O ? active

Hi, sorry to bother you, what did the test record for CCC[CH2][Sn]([Cl])([CH2]CCC)[CH2]CCC ? active

Hi, sorry to bother you, what did the test record for C=CCc1ccc2c(c1)OCO2 ? inactive

Hi, sorry to bother you, what did the test record for CCN(CC)N=O ? inactive

Hi, sorry to bother you, what did the test record for CCC(C)c1ccc(O)cc1 (centres undefined) ? inactive

Hi, sorry to bother you, what did the test record for c1ccc(C2CO2)cc1 (centres undefined) ? inactive

Hi, sorry to bother you, what did the test record for O=C1CCCO1 ? inactive

Hi, sorry to bother you, what did the test record for CCCCOC(=O)c1ccccc1C(=O)OCc1ccccc1 ? inactive
